Data origin: patent US10138225B2

Kindly state pIC50 for each of the entries shown.
Target: Human Factor D (Homo sapiens, UniProt P00746)
Construct: purified from human serum; purchased Complement Technology, Inc; host or cells: human serum (natural protein, not recombinant)
Sequence (P00746 26-253): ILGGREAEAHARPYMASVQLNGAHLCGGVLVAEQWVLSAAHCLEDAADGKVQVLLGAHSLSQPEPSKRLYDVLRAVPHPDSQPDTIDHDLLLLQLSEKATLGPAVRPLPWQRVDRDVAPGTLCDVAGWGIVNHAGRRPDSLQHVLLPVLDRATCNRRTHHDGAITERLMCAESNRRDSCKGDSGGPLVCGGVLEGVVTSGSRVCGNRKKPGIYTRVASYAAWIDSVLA
Experiment: Human Factor D Assay
Format: biochemical
Conditions: Table 1; Factor D 80 nM, substrate Z-L-Lys-SBzl; read-out: IC50
pIC50: −log10 of the molar value.

Read the entry CC(=O)c1cn(CC(=O)N2C[C@H](F)C[C@H]2C(=O)NCc2cccc(Cl)c2F)c2cc(C(=O)NCC3CCNC3)ccc12 (stereo partly drawn) and write its reported pIC50.
> 6.00

Read the entry CC(=O)c1cn(CC(=O)N2C[C@H](F)C[C@H]2C(=O)NCc2cccc(Cl)c2F)c2cc(C(=O)NCC3CCN(C(=O)OC(C)(C)C)C3)ccc12 (stereo partly drawn) and write its reported pIC50.
> 6.00

Read the entry CC(=O)c1cn(CC(=O)N2C[C@H](F)C[C@H]2C(=O)NCc2cccc(Cl)c2F)c2cc(C(=O)N[C@H]3CCN(C(C)=O)C3)ccc12 and write its reported pIC50.
> 6.00

----------
Biological target: Human Factor D (Homo sapiens)
Construct: purified from human serum; purchased Complement Technology, Inc; host or cells: human serum (natural protein, not recombinant)
Assay: Human Factor D Assay
Format: biochemical
Conditions: Table 3; factor D inhibition assay; read-out: IC50 (Stars)
measured_parameter: IC50

Read the entry CC(=O)c1cn(CC(=O)N2C[C@H](F)C[C@H]2C(=O)NCc2ccccc2)c2ccc(NC(=O)N3CCCC(F)(F)C3)cc12 and write its reported IC50.
< 1000 nM

Read the entry CC(=O)c1cn(CC(=O)N2C[C@H](F)C[C@H]2C(=O)NCc2cccc(Cl)c2F)c2ccc(C(=O)NS(=O)(=O)C3CC3)cc12 and write its reported IC50.
< 1000 nM

Read the entry CC(=O)c1cn(CC(=O)N2C[C@H](F)C[C@H]2C(=O)NCCc2ccccc2)c2ccc(C(=O)NS(=O)(=O)C3CC3)cc12 and write its reported IC50.
> 10000 nM

----------
Biological target: Human Factor D (Homo sapiens)
Construct: purified from human serum; purchased Complement Technology, Inc; host or cells: human serum (natural protein, not recombinant)
Test: Human Factor D Assay
Type: biochemical
Conditions: Table 3; factor D inhibition assay; read-out: IC50 (Stars)
pIC50: −log10 of the molar value.
measured_parameter: pIC50

Read the entry CC(=O)c1cn(CC(=O)N2CC[C@H]2C(=O)Nc2cccc(C)n2)c2ccc(NC(=O)N3CCCC(F)(F)C3)cc12 [Compound 205] and write its reported pIC50.
< 5.00

Read the entry CC(=O)c1nn(CC(=O)N2C[C@H](F)C[C@H]2C(=O)Nc2cccc(Br)n2)c2ccc(NC(=O)C3CCCC3(F)F)cc12 (stereo partly drawn) [Compound 230] and write its reported pIC50.
> 6.00

Read the entry CC(=O)c1cn(CC(=O)N2C[C@H](F)C[C@H]2C(=O)NCc2ccccc2)c2ccc(C(=O)NS(=O)(=O)C3CC3)cc12 [Compound 180] and write its reported pIC50.
5.00 to 6.00

Read the entry CC(=O)c1cn(CC(=O)N2C[C@H](F)C[C@H]2C(=O)NCCCc2ccccc2)c2ccc(NC(=O)N3CCCC(F)(F)C3)cc12 [Compound 198] and write its reported pIC50.
> 6.00

Read the entry CC(=O)c1cn(CC(=O)N2C[C@H](F)C[C@H]2C(=O)NCCCCc2ccccc2)c2ccc(C(=O)NS(=O)(=O)C3CC3)cc12 [Compound 195] and write its reported pIC50.
< 5.00

Read the entry CC(=O)c1cn(CC(=O)N2C[C@H](F)C[C@H]2C(=O)NCCCc2ccccc2)c2ccc(C(=O)NS(=O)(=O)C3CC3)cc12 [Compound 190] and write its reported pIC50.
5.00 to 6.00

Read the entry CC(=O)c1cn(CC(=O)N2C[C@H](F)C[C@H]2CCNS(=O)(=O)c2ccccc2)c2ccc(C(=O)NS(=O)(=O)C3CC3)cc12 [Compound 174] and write its reported pIC50.
< 5.00

Read the entry CC(=O)c1nn(CC(=O)N2[C@H](C(=O)Nc3cccc(Br)n3)C[C@@]3(C)C[C@@H]23)c2cc(C(=O)NS(=O)(=O)C3CC3)ccc12 [Compound 234] and write its reported pIC50.
5.00 to 6.00

Read the entry Cc1cccc(NC(=O)[C@@H]2[C@H]3CC[C@H](C3)N2C(=O)Cn2cc(C(N)=O)c3cc(C(=O)NS(=O)(=O)C4CC4)ccc32)n1 [Compound 209] and write its reported pIC50.
< 5.00

Read the entry CC(=O)c1cn(CC(=O)N2C[C@H](F)C[C@H]2C(=O)NCCCCc2ccccc2)c2ccc(NC(=O)N3CCCC(F)(F)C3)cc12 [Compound 199] and write its reported pIC50.
> 6.00

Read the entry Cc1cccc(NC(=O)[C@@H]2[C@H]3CC[C@H](C3)N2C(=O)Cn2cc(C(N)=O)c3cc(C(=O)N4CCCC(F)(F)C4)ccc32)n1 [Compound 206] and write its reported pIC50.
5.00 to 6.00

Read the entry CC(=O)c1nn(CC(=O)N2C[C@H](F)C[C@H]2C(=O)Nc2cccc(Br)n2)c2cc(C(=O)NS(=O)(=O)C3CC3)ccc12 [Compound 233] and write its reported pIC50.
> 6.00

Read the entry CC(=O)c1nn(CC(=O)N2C[C@H](F)C[C@H]2C(=O)Nc2cccc(Br)n2)c2ccc(NC(=O)N3CCC(F)(F)C3)cc12 [Compound 207] and write its reported pIC50.
> 6.00

Read the entry CC(=O)c1cn(CC(=O)N2C[C@H](F)C[C@H]2C(=O)NCCc2ccccc2)c2ccc(NC(=O)N3CCCC(F)(F)C3)cc12 [Compound 197] and write its reported pIC50.
> 6.00

Read the entry CC(=O)c1cn(CC(=O)N2C[C@H](F)C[C@H]2CCNS(=O)(=O)c2ccccc2)c2ccc(NC(=O)N3CCCC(F)(F)C3)cc12 [Compound 201] and write its reported pIC50.
5.00 to 6.00

----------
Target: Human Factor D (Homo sapiens)
Construct: purified from human serum; purchased Complement Technology, Inc; host or cells: human serum (natural protein, not recombinant)
Assay: Human Factor D Assay
Format: biochemical
Conditions: Table 1; Factor D 80 nM, substrate Z-L-Lys-SBzl; read-out: IC50
Kindly state IC50 for each of the entries shown.

Read the entry NC(=O)c1nn(CC(=O)N2C[C@H](F)C[C@H]2C(=O)Nc2cccc(Br)n2)c2ccc(NC(=O)N3CCCC(F)(F)C3)cc12 [Compound 33] and write its reported IC50.
< 1 µM

Read the entry CC(=O)c1cn(CC(=O)N2C[C@H](F)C[C@H]2C(=O)NCc2cccc(Cl)c2F)c2ccc(NC(=O)NCc3ccon3)cc12 [Compound 7] and write its reported IC50.
< 1 µM

Read the entry NC(=O)c1nn(CC(=O)N2C[C@H](F)C[C@H]2C(=O)Nc2cccc(-c3ccccc3Cl)c2F)c2ccc(NC(=O)NCc3ncccn3)cc12 [Compound 32] and write its reported IC50.
< 1 µM

Read the entry CC(=O)c1cn(CC(=O)N2C[C@H](F)C[C@H]2C(=O)NCc2cccc(Cl)c2F)c2ccc(NC(=O)N3CCCC(F)(F)C3)cc12 [Compound 16] and write its reported IC50.
< 1 µM

Read the entry NC(=O)c1nn(CC(=O)N2C[C@H](F)C[C@H]2C(=O)Nc2cccc(-c3ccccc3Cl)c2F)c2cc(C(=O)NS(=O)(=O)C3CC3)ccc12 [Compound 54] and write its reported IC50.
< 1 µM

Read the entry CC(=O)c1cn(CC(=O)N2C[C@H](F)C[C@H]2C(=O)NCc2cccc(Cl)c2F)c2ccc(C(=O)N3CC=C(B(O)O)CC3)cc12 [Compound 38] and write its reported IC50.
< 1 µM

Read the entry CC(=O)c1cn(CC(=O)N2C[C@H](F)C[C@H]2C(=O)NCc2cccc(Cl)c2F)c2ccc(NC(=O)Nc3cncnc3)cc12 [Compound 23] and write its reported IC50.
< 1 µM

----------
Kindly state pIC50 for each of the entries shown.
Biological target: Human Factor D (Homo sapiens, UniProt P00746)
Construct: purified from human serum; purchased Complement Technology, Inc; host or cells: human serum (natural protein, not recombinant)
Assay: Human Factor D Assay
Format: biochemical
Details: Table 2; Factor D 80 nM, substrate Z-L-Lys-SBzl; read-out: IC50
pIC50: −log10 of the molar value.

Read the entry NC(=O)c1nn(CC(=O)N2C[C@H](F)C[C@H]2C(=O)Nc2cccc(-c3ccccc3Cl)c2F)c2cc(C(=O)N3CCCC3)sc12 and write its reported pIC50.
> 6.00

Read the entry CNC(=O)c1cc2c(s1)c(C(N)=O)nn2CC(=O)N1C[C@H](F)C[C@H]1C(=O)Nc1cccc(-c2ccccc2Cl)c1F and write its reported pIC50.
> 6.00

Read the entry CC(C)(C)C(=O)Nc1nc2c(s1)c(C(N)=O)nn2CC(=O)N1C[C@H](F)C[C@H]1C(=O)NCc1cccc(Cl)c1F and write its reported pIC50.
> 6.00

Read the entry NC(=O)c1nn(CC(=O)N2C[C@H](F)C[C@H]2C(=O)Nc2cccc(-c3ccccc3Cl)c2F)c2cc(C(=O)N3CCOCC3)sc12 and write its reported pIC50.
> 6.00

Read the entry NC(=O)c1nn(CC(=O)N2C[C@H](F)C[C@H]2C(=O)Nc2cccc(-c3ccccc3Cl)c2F)c2cc(C(=O)NC3CCCC3)sc12 and write its reported pIC50.
> 6.00

Read the entry NC(=O)c1nn(CC(=O)N2C[C@H](F)C[C@H]2C(=O)Nc2cccc(-c3ccccc3Cl)c2F)c2cc(C(=O)NC3CC3)sc12 and write its reported pIC50.
> 6.00

Read the entry CN(C)C(=O)c1cc2c(s1)c(C(N)=O)nn2CC(=O)N1C[C@H](F)C[C@H]1C(=O)Nc1cccc(-c2ccccc2Cl)c1F and write its reported pIC50.
> 6.00

Read the entry CC(C)(C)C(=O)Nc1nc2c(s1)c(C(N)=O)nn2CC(=O)N1C[C@H](F)C[C@H]1C(=O)Nc1cccc(-c2ccccc2Cl)c1F and write its reported pIC50.
> 6.00
